Molecular target: T1, mouse αvβ6 integrin on CHOK1 stable cells (mouse, UniProt P43406 31-1044; Q9Z0T9 22-787)
T1 construct: whole, on cells; Stably expressed on CHOK1 cells; also called mαvβ6; CHOK1-mouse αvβ6
T1 sequence (P43406 31-1044, chain 1 of 2): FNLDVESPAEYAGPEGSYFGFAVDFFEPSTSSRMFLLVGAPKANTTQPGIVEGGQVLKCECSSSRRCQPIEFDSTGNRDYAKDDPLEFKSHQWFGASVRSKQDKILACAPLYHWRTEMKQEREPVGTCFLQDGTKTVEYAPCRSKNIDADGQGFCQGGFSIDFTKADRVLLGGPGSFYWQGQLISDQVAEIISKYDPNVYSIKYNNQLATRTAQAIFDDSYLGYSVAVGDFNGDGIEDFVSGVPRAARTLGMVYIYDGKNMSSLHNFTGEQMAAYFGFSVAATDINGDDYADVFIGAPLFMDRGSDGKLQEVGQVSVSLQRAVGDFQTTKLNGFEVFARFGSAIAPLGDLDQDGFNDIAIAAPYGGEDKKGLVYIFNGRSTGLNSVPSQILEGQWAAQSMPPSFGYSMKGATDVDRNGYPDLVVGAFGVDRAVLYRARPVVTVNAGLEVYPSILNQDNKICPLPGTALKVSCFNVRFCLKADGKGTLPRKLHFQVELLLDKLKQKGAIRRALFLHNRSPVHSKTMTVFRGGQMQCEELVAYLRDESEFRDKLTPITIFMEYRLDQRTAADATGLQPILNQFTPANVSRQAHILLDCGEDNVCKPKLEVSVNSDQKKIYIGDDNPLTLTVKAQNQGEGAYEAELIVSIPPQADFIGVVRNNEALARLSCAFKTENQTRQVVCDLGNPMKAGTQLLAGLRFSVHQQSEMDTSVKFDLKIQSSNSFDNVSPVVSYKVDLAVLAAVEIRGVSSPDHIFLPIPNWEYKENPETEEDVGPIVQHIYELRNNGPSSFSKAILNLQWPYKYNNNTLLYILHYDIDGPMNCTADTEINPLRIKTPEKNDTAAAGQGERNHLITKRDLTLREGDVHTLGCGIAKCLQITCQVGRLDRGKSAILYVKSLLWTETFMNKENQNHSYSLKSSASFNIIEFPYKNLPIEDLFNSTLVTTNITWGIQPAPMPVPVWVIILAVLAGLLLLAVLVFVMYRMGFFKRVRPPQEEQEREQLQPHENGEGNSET
T1 sequence (Q9Z0T9 22-787, chain 2 of 2): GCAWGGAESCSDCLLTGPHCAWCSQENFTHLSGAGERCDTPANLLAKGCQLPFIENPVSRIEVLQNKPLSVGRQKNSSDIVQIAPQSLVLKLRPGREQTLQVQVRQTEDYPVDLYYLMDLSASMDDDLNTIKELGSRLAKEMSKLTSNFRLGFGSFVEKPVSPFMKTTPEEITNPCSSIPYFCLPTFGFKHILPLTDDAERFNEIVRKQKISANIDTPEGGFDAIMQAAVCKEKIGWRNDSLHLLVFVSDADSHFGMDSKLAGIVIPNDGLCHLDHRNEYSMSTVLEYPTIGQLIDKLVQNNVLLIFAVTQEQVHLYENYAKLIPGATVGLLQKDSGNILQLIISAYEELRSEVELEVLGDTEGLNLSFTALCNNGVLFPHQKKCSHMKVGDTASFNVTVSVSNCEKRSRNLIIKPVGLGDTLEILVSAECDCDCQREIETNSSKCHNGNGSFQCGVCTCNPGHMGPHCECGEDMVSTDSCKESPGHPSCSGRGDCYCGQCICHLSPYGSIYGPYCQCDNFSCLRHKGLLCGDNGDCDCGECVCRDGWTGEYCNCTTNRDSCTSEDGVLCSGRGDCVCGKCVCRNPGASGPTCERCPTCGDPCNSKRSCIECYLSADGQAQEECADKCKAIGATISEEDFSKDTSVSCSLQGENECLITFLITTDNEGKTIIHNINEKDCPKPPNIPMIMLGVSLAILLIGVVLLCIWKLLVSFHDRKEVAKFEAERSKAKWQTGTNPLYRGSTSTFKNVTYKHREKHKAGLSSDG
Assay: cell-based ELISA (CELISA), CHOK1 cells expressing the integrin
readout.type: pEC50
API: returns pEC50 as number; meaning -log10 of concentration in mol/L.

Ask | So what does the record say about pEC50 for Ab-31 (antibody, V domains shown) VH: EVQLQESGPGLVKPSETLSLTCAVSGYSISSGYYWGWIRQPPGKGLEWIGSIYHSGNTYYNPSLKSRVTISVDTSKNQFSLKLSSVTAADTAVYYCARVPRYSRGDAYYYYGMDVWGQGTTVTVSS VL: DIQMTQSPSTLSASVGDRVTITCRASQSIGSWLAWYQQKPGKAPKLLIYKASSLESGVPSRFSGSGSGTEFTLTISSLQPDDFATYYCQQSGPYPWTFGGGTKVEIK ?
Reply | 9.19
